# runDescription: amyloid nucleation score (Sup35N fusion, yeast selection) (log enrichment); library NNK2; higher = more nucleation; inactive = no reads after selection;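 note: zero at mode of non-aggregating sequences after 7 days selection at 30°C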
measure: amyloid nucleation score
Form: value (number only, do not type unit).

Data request: So what's the measured amyloid nucleation score for this one? SMSSNVRTYNQFTHL
Data returned: 0.716

Data request: So what's the measured amyloid nucleation score for this one? NGYRNFIRGHDSRFRGVTTT
Data returned: 4.66

Data request: So what's the measured amyloid nucleation score for this one? TFELNLLVPAPNCRFHDLRR
Data returned: 1.46

Data request: So what's the measured amyloid nucleation score for this one? GDTCELCSVCQVNGV
Data returned: 1.15

Data request: So what's the measured amyloid nucleation score for this one? LDSQMWNMSGQVRTRIGRSV
Data returned: 0.459

Data request: So what's the measured amyloid nucleation score for this one? TVSPPLVVFAFRISLRSLRP
Data returned: 1.12

Data request: So what's the measured amyloid nucleation score for this one? LKIYLCIPHRRL
Data returned: 0.082

Data request: So what's the measured amyloid nucleation score for this one? TLQKELSHVQETRYTW
Data returned: -0.288

Data request: So what's the measured amyloid nucleation score for this one? FDFRNGCGNTKVEFSMHRSG
Data returned: 2.86

Data request: So what's the measured amyloid nucleation score for this one? RVMGCVMGIRGWRIRIGNSG
Data returned: 1.42

Data request: So what's the measured amyloid nucleation score for this one? FCPLLPVRFHV
Data returned: -0.533

Data request: So what's the measured amyloid nucleation score for this one? PSFILIFNGCKWVPYASKCG
Data returned: 8.92

====

# runDescription: amyloid nucleation score (Sup35N fusion, yeast selection) (log enrichment); library NNK1; higher = more nucleation; inactive = no reads after selection
Everything with amyloid nucleation score lower than 0.09 is false (0); everything else, including exactly 0.09, is true (1).

Data request: Is the recorded value of amyloid nucleation score equal to or greater than 0.09 for this sequence? PKFAHILTHGVSHMQWTVVK
Data returned: false (0)

Data request: Is the recorded value of amyloid nucleation score equal to or greater than 0.09 for this sequence? AVGIANFTAPKCWLDNVGP
Data returned: false (0)

Data request: Is the recorded value of amyloid nucleation score equal to or greater than 0.09 for this sequence? YNDMVICSTTDGTLSYCRHF
Data returned: true (1)

Data request: Is the recorded value of amyloid nucleation score equal to or greater than 0.09 for this sequence? TPFGSVMVGYWQPIPLRDLG
Data returned: true (1)

Data request: Is the recorded value of amyloid nucleation score equal to or greater than 0.09 for this sequence? KCTCSVKCSCIFCFIICCVC
Data returned: false (0)

Data request: Is the recorded value of amyloid nucleation score equal to or greater than 0.09 for this sequence? TRCINVYHPLCI
Data returned: false (0)

Data request: Is the recorded value of amyloid nucleation score equal to or greater than 0.09 for this sequence? SLKSSCRKNRLM
Data returned: false (0)

Data request: Is the recorded value of amyloid nucleation score equal to or greater than 0.09 for this sequence? VQSSFSFYDVVNSPGHRWTW
Data returned: true (1)

Data request: Is the recorded value of amyloid nucleation score equal to or greater than 0.09 for this sequence? GPRYRLLLWECCRHDLSLSC
Data returned: true (1)

Data request: Is the recorded value of amyloid nucleation score equal to or greater than 0.09 for this sequence? RFNYVYFINRNMNEPRRGSL
Data returned: true (1)

Data request: Is the recorded value of amyloid nucleation score equal to or greater than 0.09 for this sequence? FHFKFSSLLIVSFVLGFCLV
Data returned: false (0)

====

# runDescription: amyloid nucleation score (Sup35N fusion, yeast selection) (log enrichment); library NNK2; higher = more nucleation; inactive = no reads after selection
measure: amyloid nucleation score

1. YIWNCDSDSIVPLLL ... inactive
2. ALIYCVFSFPFEAYDYMRFR ... inactive
3. LFCRSSC ... inactive

====

# runDescription: amyloid nucleation score (Sup35N fusion, yeast selection) (log enrichment); library NNK2; higher = more nucleation; inactive = no reads after selection
measure: amyloid nucleation score
Form: value (number only, do not type unit).

Data request: So what's the measured amyloid nucleation score for this one? YKCDVICCFGIWVLMFEN
Data returned: 5.25

Data request: So what's the measured amyloid nucleation score for this one? KRSVVKNLG
Data returned: 0.157

Data request: So what's the measured amyloid nucleation score for this one? TIIKDIVIVDVFSSN
Data returned: 1.53

Data request: So what's the measured amyloid nucleation score for this one? AWESNCIVRFKY
Data returned: 4.36

Data request: So what's the measured amyloid nucleation score for this one? GTWKVGQSYVVRVRLFFLLW
Data returned: -0.369

Data request: So what's the measured amyloid nucleation score for this one? DYLVRGQEY
Data returned: 0.357

Data request: So what's the measured amyloid nucleation score for this one? WVHVNSCELDSPGKAWGDTG
Data returned: 1.11

Data request: So what's the measured amyloid nucleation score for this one? TSDPCFFCNST
Data returned: -0.381

Data request: So what's the measured amyloid nucleation score for this one? NMRSNRVSLVPDGMLRLSAN
Data returned: 1.39

Data request: So what's the measured amyloid nucleation score for this one? DSSYVSVHRFCNFGYLIFCF
Data returned: 7.73

Data request: So what's the measured amyloid nucleation score for this one? WFDIKL
Data returned: -0.367

Data request: So what's the measured amyloid nucleation score for this one? VYNFSFSNSNVK
Data returned: 6.67

Data request: So what's the measured amyloid nucleation score for this one? VWPLFAEDGCNANGVVNQVS
Data returned: 0.955

Data request: So what's the measured amyloid nucleation score for this one? DLYNCMHWQHVEYIMLLHGL
Data returned: -0.846

Data request: So what's the measured amyloid nucleation score for this one? TFRCVVRPLGMRSVLMAGSG
Data returned: 0.852

Data request: So what's the measured amyloid nucleation score for this one? VWFMEVNVKYECTPSYEGRL
Data returned: 3.81

Data request: So what's the measured amyloid nucleation score for this one? SIVSHKVITISMFVI
Data returned: 4.5

Data request: So what's the measured amyloid nucleation score for this one? DCPLFQRLYRQS
Data returned: -0.211

Data request: So what's the measured amyloid nucleation score for this one? PAFQCMVQMKPGLWVV
Data returned: -0.456

Data request: So what's the measured amyloid nucleation score for this one? CLTSGHL
Data returned: 0.372

Data request: So what's the measured amyloid nucleation score for this one? PCTVHASNRTLGHRVKSCSV
Data returned: -0.515

Data request: So what's the measured amyloid nucleation score for this one? YFWQEIVAFNKVESLILELG
Data returned: -0.451

Data request: So what's the measured amyloid nucleation score for this one? MLDLNQFLCRGFKLTRPYGL
Data returned: -0.155

Data request: So what's the measured amyloid nucleation score for this one? LADTVIMGLGSTLFVYVYLI
Data returned: 3.88

Data request: So what's the measured amyloid nucleation score for this one? TFGRRATDNAASMPVSMRGR
Data returned: 0.424

Data request: So what's the measured amyloid nucleation score for this one? ALLQICCSFIIYHTLLPAPA
Data returned: 6.11

Data request: So what's the measured amyloid nucleation score for this one? GITSFDTIYCGRVVYQRWLL
Data returned: 0.578

Data request: So what's the measured amyloid nucleation score for this one? GSVRYWK
Data returned: -0.685

Data request: So what's the measured amyloid nucleation score for this one? FGLTACH
Data returned: -0.579

Data request: So what's the measured amyloid nucleation score for this one? PSTYWRMILKFRVCEIVHGT
Data returned: 0.231

Data request: So what's the measured amyloid nucleation score for this one? YQSDLTYLE
Data returned: -0.518

Data request: So what's the measured amyloid nucleation score for this one? SLSLINRSVVDAWRGRDGVR
Data returned: 5.11

Data request: So what's the measured amyloid nucleation score for this one? FLFLTTVSPRWTYRCTRFLG
Data returned: 4.64

Data request: So what's the measured amyloid nucleation score for this one? SALRVSEGMLSSGEIAHLVY
Data returned: -0.052

Data request: So what's the measured amyloid nucleation score for this one? LVRMIYTYSVRSDSVSFKSF
Data returned: -0.132

Data request: So what's the measured amyloid nucleation score for this one? VSSAHYV
Data returned: -0.657

Data request: So what's the measured amyloid nucleation score for this one? SMYNSHHSELVNWLNDYIWL
Data returned: 2.47

Data request: So what's the measured amyloid nucleation score for this one? DYLVSMTVNSASLFRYIERR
Data returned: 5.21

Data request: So what's the measured amyloid nucleation score for this one? RIQSSFFHCC
Data returned: 7.83

Data request: So what's the measured amyloid nucleation score for this one? PNLIGLLVGLRVNSWSVAIT
Data returned: 0.632

Data request: So what's the measured amyloid nucleation score for this one? FTASFFP
Data returned: 0.05

Data request: So what's the measured amyloid nucleation score for this one? YFCSVSRFRVLDSDYYRKGW
Data returned: -0.817

Data request: So what's the measured amyloid nucleation score for this one? LIFCGECTILNTGGGNRAWV
Data returned: 8.36

Data request: So what's the measured amyloid nucleation score for this one? IRGGHTLSYRVEDKRPTEWG
Data returned: 2.04

Data request: So what's the measured amyloid nucleation score for this one? GQNTDVTCQRYERTM
Data returned: 0.329

Data request: So what's the measured amyloid nucleation score for this one? VRCLVRYYAVR
Data returned: -0.649

Data request: So what's the measured amyloid nucleation score for this one? LINEFNAKNQSVRIFPVSEK
Data returned: -0.645

Data request: So what's the measured amyloid nucleation score for this one? TFFIMEIFDFC
Data returned: 1.8

Data request: So what's the measured amyloid nucleation score for this one? SLWVMKCDKDTKYADRSFTL
Data returned: -0.632

Data request: So what's the measured amyloid nucleation score for this one? MRPAPIINN
Data returned: 1.14

Data request: So what's the measured amyloid nucleation score for this one? CVKVNWVSV
Data returned: -0.81

Data request: So what's the measured amyloid nucleation score for this one? SEFRHGSYYSGVTEVRFWVQ
Data returned: 2.26

Data request: So what's the measured amyloid nucleation score for this one? ADWMFRFMKERRQMVWNTRI
Data returned: 0.044

Data request: So what's the measured amyloid nucleation score for this one? SAGGVSPFP
Data returned: -0.659

Data request: So what's the measured amyloid nucleation score for this one? CGVFSLQCYHVDESTRCREF
Data returned: 6.4

Data request: So what's the measured amyloid nucleation score for this one? PESGGNAIFAHERMQLGRRS
Data returned: 0.92

Data request: So what's the measured amyloid nucleation score for this one? FYATYSSLRLGVVTIIPPGL
Data returned: 4.49

Data request: So what's the measured amyloid nucleation score for this one? ASGQWGPD
Data returned: -0.67

Data request: So what's the measured amyloid nucleation score for this one? IVAGVSSGQGIDQDSIVNKR
Data returned: 0.102

Data request: So what's the measured amyloid nucleation score for this one? PNQISNA
Data returned: -0.47
